// data source = the supplement of paper PMC9233669

# System: biotinyl-Leu-oxazolone
# Method description: self-aminoacylation, catalytic enhancement (BLO) (fold over background); higher = more active; k-Seq, kA / k0A0; sequences stand for … in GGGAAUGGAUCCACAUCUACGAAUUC…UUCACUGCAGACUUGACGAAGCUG
Variants at the floor of the assay were thinned out.
We begin with a simple list: items and their reported self-aminoacylation.
Measurement label: self-aminoacylation

1) AAGUUACCUAAUAGUCGCAAG [Fam3.1 aminoacylation ribozyme variant] | 1.39
2) CGACACUUCAAGCAGUCGGUC [Fam1B.1 aminoacylation ribozyme variant] | 1.23
3) AAGUUUGGUAAGAGUCGCAAG [Fam3.1 aminoacylation ribozyme variant] | 1.43
4) CGGUUUGCUAAUAGUCGCAAG [Fam3.1 aminoacylation ribozyme variant] | 1.17
5) AUUACCCUUCUCAUCGAGUGA [Fam2.1 aminoacylation ribozyme variant] | 6.53
6) AUUAUCCUGGUCAUCGUGUGA [Fam2.1 aminoacylation ribozyme variant] | 3.83
7) CCACACCUCAAGCAGUCGGUC [Fam1B.1 aminoacylation ribozyme variant] | 1.47
8) AUUCACCUGGGUAAUCGGGUG [Fam2.2 aminoacylation ribozyme variant] | 5.16
9) AUUACCCUGGUCCGCGAGUGA [Fam2.1 aminoacylation ribozyme variant] | 11.5
